Quick reference: Kd of the listed items.
Study Target: T1, EBOV VP30 C-terminal domain, residues 130-272 (Zaire ebolavirus, UniProt Q05323 130-272)
T1 sequence: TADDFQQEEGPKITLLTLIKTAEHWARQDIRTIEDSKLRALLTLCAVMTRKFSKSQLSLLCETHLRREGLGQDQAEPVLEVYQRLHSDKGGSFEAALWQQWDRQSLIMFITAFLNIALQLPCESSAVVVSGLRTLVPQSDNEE
Assay Summary: fluorescence polarisation
Respond with the figure and its unit, in that order.

{"Binder": "SLPATPVFVPVPPPPLYPPPPHT [RBBP6 peptide, residues 549-571]", "Measured Value": "18.1 µM"}

Give its Kd value. Item: RTPTVAPPAPVYRDHS [unlabeled NP peptide] 89.2 µM

Data credit: paper PMC6366944
